Recorded values, source ChEMBL document CHEMBL2396621.

Tested on: M14
Experiment: Cytotoxicity against human M14 cells assessed as growth inhibition at 10 uM after 48 hrs by coulter counter analysis
Format: functional
Settings: M14, 48 h, read-out: GI
quantity: inhibition of growth at 10 µM (%)
Kindly provide the numeric value in % only, without the unit symbol.

COc1ccc(NC(=O)CSc2nc3ccccc3c(=O)n2CCc2ccccc2)cc1; 25
O=C(CSc1nc2ccccc2c(=O)n1CCc1ccccc1)Nc1ccc(F)cc1; 18
COc1cc(NC(=O)CSc2nc3ccccc3c(=O)n2CCc2ccccc2)cc(OC)c1OC; 68
COc1cc(NC(=O)CCSc2nc3ccccc3c(=O)n2CCc2ccccc2)cc(OC)c1OC; 40

Let us move to another entry and its inhibition of growth at 10 µM.
Looking up `CCOC(=O)c1ccc(NC(=O)CSc2nc3ccccc3c(=O)n2CCc2ccccc2)cc1` , I found its inhibition of growth at 10 µM recorded as 21
